assay: Phase 1 trial: plasma pharmacokinetics; format: in vivo; conditions: human, 80 mg, Cycle 1 Day 1, 80 mg BID (n = 3), read-out: Tmax mean
experimental_readout: Tmax (min)
Write down the numeric answer in min and omit the unit.

Please give the measured Tmax for this molecule: COc1ccc(CN2C3CC2CN(c2ccc(-c4cc(N5CC(C)(O)C5)cn5ncc(C#N)c45)cn2)C3)cn1 [SY-5007]
30

====

tested on: Baf3-KIF5B-RET M918T cells; experiment: Proliferation assay (CellTiter-Glo); assay type: cell-based, murine; conditions: Mus musculus, read-out: Cellular Viability IC50
experimental_readout: IC50 (µM)
Please give a number only; it is taken to be in µM.

Provide the documented IC50 with Baf3-KIF5B-RET M918T cells as the system for `COc1ccc(CN2C3CC2CN(c2ccc(-c4cc(N5CC(C)(O)C5)cn5ncc(C#N)c45)cn2)C3)cn1`
0.0136
